Reported Top (MFI) values follow for various binders
- targetOfAssay: T1, human AMHRII (anti-Mullerian hormone receptor type 2) (human, UniProt Q16671 18-573)
- T1 construct: whole, on cells; also called AMHR2; human AMHR2
- T1 sequence (looked up): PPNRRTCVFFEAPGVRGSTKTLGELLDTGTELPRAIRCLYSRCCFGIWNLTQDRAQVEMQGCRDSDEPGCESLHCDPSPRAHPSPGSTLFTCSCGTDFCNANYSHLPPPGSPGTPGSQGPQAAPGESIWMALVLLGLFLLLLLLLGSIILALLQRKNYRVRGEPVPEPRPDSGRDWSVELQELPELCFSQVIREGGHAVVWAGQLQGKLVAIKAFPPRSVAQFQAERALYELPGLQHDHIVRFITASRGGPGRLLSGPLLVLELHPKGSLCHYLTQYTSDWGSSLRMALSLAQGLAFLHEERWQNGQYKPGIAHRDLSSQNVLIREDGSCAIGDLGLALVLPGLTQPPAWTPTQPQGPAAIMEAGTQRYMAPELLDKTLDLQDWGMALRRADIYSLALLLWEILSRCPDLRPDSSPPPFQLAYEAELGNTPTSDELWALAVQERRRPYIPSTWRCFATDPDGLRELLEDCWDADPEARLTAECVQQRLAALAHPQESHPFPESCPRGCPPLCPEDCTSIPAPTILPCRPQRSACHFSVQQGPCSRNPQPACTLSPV
- experimentNotes: FACS on CHO-K1 cells over-expressing human AMHR2
I only need the number, in MFI, no unit after it.

1) 31D9B3 H2L4 hIgG1 (antibody, V domains shown, Humanized, human IgG1; also called 31D9B3 H2L4 hlgG1) VH: QVQLVQSGAEVVKPGASVKVSCKASGYTFTDYWVSWVRQAPGQGLEWIGEIYPKNGVSNFNEKFKGRVTMTVDTSTSTAYMELRSLRSDDTAVYYCTRQRDYWGQGTLVTVSS VL: DVVLTQSPLSLPVTLGQPASISCRSSQSLEYGDGYTYLEWYLQRPGQSPQLLIYGVSNRFSGVPDRFIGSGSGTDFTLKISRVEPEDVGVYYCFQATHDPNTFGAGTKLEIK	39200
2) 31D9B3 H1L1 hIgG1 (antibody, V domains shown, Humanized, human IgG1; also called 31D9B3 H1L1 hlgG1) VH: QVQLVQSGAEVKKPGASVKVSCKASGYTFTDYWVSWVRQAPGQGLEWMGEIYPKNGVSNFNEKFKGRVTMTTDTSTSTAYMELRSLRSDDTAVYYCARQRDYWGQGTLVTVSS VL: DVVMTQSPLSLPVTLGQPASISCRSSQSLEYGDGYTYLEWFQQRPGQSPRRLIYGVSNRFSGVPDRFSGSGSGTDFTLKISRVEAEDVGVYYCFQATHDPNTFGQGTKLEIK	8940
3) 31D9B3 H2L1 hIgG1 (antibody, V domains shown, Humanized, human IgG1; also called 31D9B3 H2L1 hlgG1) VH: QVQLVQSGAEVVKPGASVKVSCKASGYTFTDYWVSWVRQAPGQGLEWIGEIYPKNGVSNFNEKFKGRVTMTVDTSTSTAYMELRSLRSDDTAVYYCTRQRDYWGQGTLVTVSS VL: DVVMTQSPLSLPVTLGQPASISCRSSQSLEYGDGYTYLEWFQQRPGQSPRRLIYGVSNRFSGVPDRFSGSGSGTDFTLKISRVEAEDVGVYYCFQATHDPNTFGQGTKLEIK	19100
4) 31D9B3 H2L2 hIgG1 (antibody, V domains shown, Humanized, human IgG1; also called 31D9B3 H2L2 hlgG1) VH: QVQLVQSGAEVVKPGASVKVSCKASGYTFTDYWVSWVRQAPGQGLEWIGEIYPKNGVSNFNEKFKGRVTMTVDTSTSTAYMELRSLRSDDTAVYYCTRQRDYWGQGTLVTVSS VL: DVVMTQSPLSLPVTLGQPASISCRSSQSLEYGDGYTYLEWYLQRPGQSPRLLIYGVSNRFSGVPDRFSGSGSGTDFTLKISRVEAEDVGVYYCFQATHDPNTFGQGTKLEIK	37900
5) xi31D9B3 hIgG1 (antibody, V domains shown, Murine variable domains in human chimeric format, human IgG1; also called xi31D9B3 hlgG1; 31D9B3 hlgG1) VH: QVKLLQSGAALVKPGASVKMSCKASGYTFTDYWVSWVKQSHGKSLEWIGEIYPKNGVSNFNEKFKGKATLTVDKSTSTAYMELRRLTSEDSAIFYCTRQRDYWGQGVMVTVSS VL: DVVLTQTPGSLSVTLGDQASISCRSSQSLEYGDGYTYLEWYLQKPGQSPQLLIYGVSNRFSGVPDRFIGSGSGTDFTLKISRVEPEDLGVYYCFQATHDPNTFGAGTKLELK	35200
6) 31D9B3 H1L4 hIgG1 (antibody, V domains shown, Humanized, human IgG1; also called 31D9B3 H1L4 hlgG1) VH: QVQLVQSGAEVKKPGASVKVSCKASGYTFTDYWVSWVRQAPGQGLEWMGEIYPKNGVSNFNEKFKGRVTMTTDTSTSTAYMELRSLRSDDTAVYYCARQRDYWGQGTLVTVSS VL: DVVLTQSPLSLPVTLGQPASISCRSSQSLEYGDGYTYLEWYLQRPGQSPQLLIYGVSNRFSGVPDRFIGSGSGTDFTLKISRVEPEDVGVYYCFQATHDPNTFGAGTKLEIK	34100
7) 31D9B3 H1L2 hIgG1 (antibody, V domains shown, Humanized, human IgG1; also called 31D9B3 H1L2 hlgG1; 31D9B3 VH1-VL2 hlgG1) VH: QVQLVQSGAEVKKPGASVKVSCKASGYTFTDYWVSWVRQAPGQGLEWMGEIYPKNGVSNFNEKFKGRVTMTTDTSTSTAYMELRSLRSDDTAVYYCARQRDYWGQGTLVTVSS VL: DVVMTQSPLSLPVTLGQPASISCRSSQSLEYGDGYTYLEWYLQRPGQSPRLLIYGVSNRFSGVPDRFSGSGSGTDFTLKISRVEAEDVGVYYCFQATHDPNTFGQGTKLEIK	36200
8) 31D9B3 H1L3 hIgG1 (antibody, V domains shown, Humanized, human IgG1; also called 31D9B3 H1L3 hlgG1) VH: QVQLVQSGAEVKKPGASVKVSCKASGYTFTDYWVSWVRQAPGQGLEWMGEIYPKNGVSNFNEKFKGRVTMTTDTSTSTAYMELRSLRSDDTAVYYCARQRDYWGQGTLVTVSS VL: DVVMTQSPLSLPVTLGQPASISCRSSQSLEYGDGYTYLEWYLQRPGQSPRLLIYGVSNRFSGVPDRFIGSGSGTDFTLKISRVEAEDVGVYYCFQATHDPNTFGAGTKLEIK	34700

Now, please, on to the next binder.
Please fill in: Top (MFI) reported for 31D9B3 H2L3 hIgG1 (antibody, V domains shown, Humanized, human IgG1; also called 31D9B3 H2L3 hlgG1) VH: QVQLVQSGAEVVKPGASVKVSCKASGYTFTDYWVSWVRQAPGQGLEWIGEIYPKNGVSNFNEKFKGRVTMTVDTSTSTAYMELRSLRSDDTAVYYCTRQRDYWGQGTLVTVSS VL: DVVMTQSPLSLPVTLGQPASISCRSSQSLEYGDGYTYLEWYLQRPGQSPRLLIYGVSNRFSGVPDRFIGSGSGTDFTLKISRVEAEDVGVYYCFQATHDPNTFGAGTKLEIK = 36700
